- measured.on: catalytic domain of human Bub1 (amino acids 704-1085) (Homo sapiens)
- Construct: catalytic domain of human Bub1 (amino acids 704-1085); His6 (N); made in house; host or cells: Hi5 insect cells
- Sequence (O43683 704-1085): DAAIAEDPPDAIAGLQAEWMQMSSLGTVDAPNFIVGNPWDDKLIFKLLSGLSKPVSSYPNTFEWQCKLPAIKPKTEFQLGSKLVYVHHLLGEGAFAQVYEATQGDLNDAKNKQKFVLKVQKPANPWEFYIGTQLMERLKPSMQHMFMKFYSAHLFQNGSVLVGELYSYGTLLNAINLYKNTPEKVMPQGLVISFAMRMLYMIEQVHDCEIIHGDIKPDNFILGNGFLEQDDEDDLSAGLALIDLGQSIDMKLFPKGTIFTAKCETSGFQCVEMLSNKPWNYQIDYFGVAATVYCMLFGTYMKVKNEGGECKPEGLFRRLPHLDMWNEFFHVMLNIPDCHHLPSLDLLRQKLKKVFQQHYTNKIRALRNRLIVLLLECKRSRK
- assay.summary: Bub1 kinase assay (TR-FRET)
- Format: biochemical
- reported.conditions: Biological Assay 1: Bub1 kinase assay median IC50, TR-FRET, ATP 10 μM, peptide substrate 1 μM, 60 min at 22° C.
property.name: IC50 (nM)

Solved cases (4 shown):
CCOc1cc(F)c(Cn2nc(-c3ncc(OCCN(C)C)c(Nc4ccncc4)n3)c(C)c2C2CC2)c(F)c1 [Example 2-3-1] = 7.45
CCOc1cc(F)c(Cn2nc(-c3ncc(OC)c(Nc4ccncc4)n3)c(C)c2OC)c(F)c1 [Example 2-1-1] = 6.14
CCOc1cc(F)c(Cn2nc(-c3nccc(Nc4ccncc4C#N)n3)c(C)c2C2CC2)c(F)c1 [Example 2-6-6] = 8.77
CCOc1cc(F)c(Cn2nc(-c3ncc(OCCS(C)(=O)=O)c(Nc4ccncc4)n3)c(C)c2C2CC2)c(F)c1 [Example 2-9-1] = 7.87

a. CCOc1cc(F)c(Cn2nc(-c3ncc(OC)c(Nc4ccncc4C(=O)O)n3)c(C)c2C2CC2)c(F)c1 [Example 2-11-1]
b. CCOc1cc(F)c(Cn2nc(-c3ncc(OCCSC)c(Nc4ccncc4)n3)c(C)c2C2CC2)c(F)c1 [Example 2-3-4]
c. CCOc1cc(F)c(Cn2nc(-c3ncc(O)c(Nc4ccncc4)n3)c(C)c2C2CC2)c(F)c1 [Example 2-2-1]
Hi! Can you put these in order of IC50, lowest number first? Record the ranking as a list of labels in the requested order.
c, b, a
(c: 6.2 nM, b: 10.8 nM, a: 26.8 nM)

* * *

- Tested on: H460 cell line
- assay.summary: Proliferation assay (H460 cell line)
- reported.conditions: Homo sapiens, NCI-H460, 96 h, read-out: Biological Assay 2: Proliferation assay (H460 cell line) median IC50
property.name: IC50 (nM)

CCOc1cc(F)c(Cn2nc(-c3ncc(OCCN(C)C)c(Nc4ccncc4)n3)c(C)c2C2CC2)c(F)c1 = 1460

1. CCOc1cc(F)c(Cn2nc(-c3ncc(OC)c(Nc4ccncc4)n3)c(C)c2C2CC2)c(F)c1
2. CCOc1cc(F)c(Cn2nc(-c3ncc(OCCCS(C)(=O)=O)c(Nc4ccncc4)n3)c(C)c2C2CC2)c(F)c1
Please indicate which has the smaller reported IC50: 1 , or 2 . Kindly state the label of the option you pick.
2
(2: 1550 nM, 1: 2620 nM)

* * *

- measured.on: catalytic domain of human Bub1 (amino acids 704-1085) (Homo sapiens)
- Construct: catalytic domain of human Bub1 (amino acids 704-1085); His6 (N); made in house; host or cells: Hi5 insect cells
- assay.summary: Bub1 kinase assay (TR-FRET)
- Assay type: biochemical
- reported.conditions: TR-FRET, ATP 10 μM, peptide substrate 1 μM, 60 min at 22° C.; read-out: Biological Assay 1: Bub1 kinase assay median IC50
pIC50: −log10 of the molar value.
property.name: pIC50

Solved cases (2 shown):
CCOc1cc(F)c(Cn2nc(-c3ncc(OC)c(Nc4ccncc4)n3)c(C)c2C2CC2)c(F)c1 = 8.22
COc1cnc(-c2nn(Cc3c(F)cc(C4CC4)cc3F)c(C3CC3)c2C)nc1Nc1ccncc1 = 8.06

a. COc1ccc(Cn2nc(-c3ncc(OC)c(Nc4ccncc4)n3)cc2C2CC2)cc1
b. COc1cnc(-c2nn(Cc3c(Cl)cccc3Cl)c(C3CC3)c2C)nc1Nc1ccncc1
Short answer wanted: higher pIC50, a or b ? Kindly state the label of the option you pick.
b
